- measured-target: human RXFP1 (Homo sapiens, UniProt Q9HBX9)
- Construct: expressed in transfected cells
- Sequence (Q9HBX9 whole entry): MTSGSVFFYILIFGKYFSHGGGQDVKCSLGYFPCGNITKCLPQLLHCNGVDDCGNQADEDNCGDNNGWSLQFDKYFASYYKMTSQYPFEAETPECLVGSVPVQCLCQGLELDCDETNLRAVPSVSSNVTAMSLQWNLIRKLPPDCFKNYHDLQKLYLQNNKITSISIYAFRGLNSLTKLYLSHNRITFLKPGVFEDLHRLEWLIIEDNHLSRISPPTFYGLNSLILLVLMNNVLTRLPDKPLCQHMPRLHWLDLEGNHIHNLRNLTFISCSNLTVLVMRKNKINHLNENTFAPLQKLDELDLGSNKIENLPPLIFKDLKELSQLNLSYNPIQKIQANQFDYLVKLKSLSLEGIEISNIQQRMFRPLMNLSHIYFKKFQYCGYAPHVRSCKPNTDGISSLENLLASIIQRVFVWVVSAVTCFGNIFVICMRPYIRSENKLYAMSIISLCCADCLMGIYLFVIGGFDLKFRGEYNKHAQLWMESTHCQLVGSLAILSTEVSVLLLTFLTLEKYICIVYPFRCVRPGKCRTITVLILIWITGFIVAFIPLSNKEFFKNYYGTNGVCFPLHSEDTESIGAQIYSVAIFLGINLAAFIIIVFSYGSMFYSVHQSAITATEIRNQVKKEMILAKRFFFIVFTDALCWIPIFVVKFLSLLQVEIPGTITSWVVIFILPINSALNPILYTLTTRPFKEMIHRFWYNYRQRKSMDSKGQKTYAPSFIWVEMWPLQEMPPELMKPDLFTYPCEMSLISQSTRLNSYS
- test-name: RXFP1 cAMP assay (hRXFP1 HEK293 cAMP assay, HTRF)
- Format: cell-based
- assay-context: HEK293 cells stably expressing human RXFP1, 30 min at room temperature, read-out: cAMP hRXFP1 HEK293 Assay EC50
pEC50: −log10 of the molar value.
experimental-readout: pEC50

| compound | experimental-readout | numeric-value |
| --- | --- | --- |
| COc1ccc(-c2cc(C(=O)O)ccc2F)cc1C(=O)N[C@@H]1C2CCC(/C2=C/C2CC2)[C@@H]1C(=O)Nc1ccc(F)c(F)c1F (stereo partly drawn) | pEC50 | 5.86 |
| COc1ccc(C2=NOC3COCC23)cc1C(=O)N[C@H]1[C@@H](C(=O)NCC2C(C)(C)C2(C)C)[C@H]2CC[C@@H]1/C2=C\C1CC1 (stereo partly drawn) | pEC50 | 7.10 |
| COc1ccc(C2=NOC3COCC23)cc1C(=O)N[C@H]1[C@@H](C(=O)NC2(CO)CCCC2)[C@H]2CC[C@@H]1/C2=C\C1CC1 (stereo partly drawn) | pEC50 | 6.57 |
| COc1ccc(C2=NO[C@@H]3C[C@H](CO)CN23)cc1C(=O)N[C@H]1[C@@H](C(=O)Nc2ccc(F)c(C(F)(F)F)c2)[C@H]2CC[C@@H]1/C2=C\C1CC1 | pEC50 | 8.74 |
| COc1ccc(C2=NOC(CC(=O)O)C2)cc1C(=O)N[C@@H]1C2CCC(/C2=C/C2CCC2)[C@@H]1C(=O)Nc1ccc(F)c(C(F)(F)F)c1 (stereo partly drawn) [compound 393] | pEC50 | 7.14 |
| COc1ccc(C2=CCCNC2)cc1C(=O)N[C@@H]1C2CCC(C2=C(C)C)[C@@H]1C(=O)Nc1ccc(F)c(C(F)(F)F)c1 (stereo partly drawn) | pEC50 | 6.15 |
